# Test: Clinical study, relative bioavailability: plasma cladribine after oral formulations vs subcutaneous administration
# Format: in vivo, human (patients with MS)
# Measurement setup: human, sc, 3.0 mg subcutaneous, single dose, Geom Mean, n = 12
Measured metric: AUC(0-inf) (ng·h/mL)
The reply should contain only the number, in ng·h/mL.

Req: Name the recorded AUC(0-inf) of the molecule listed here: Nc1nc(Cl)nc2c1ncn2[C@H]1C[C@H](O)[C@@H](CO)O1 [Cladribine, 2-chloro-2′-deoxyadenosine]
Resp: 57.3

====

# Test: Clinical study, dose response and absolute bioavailability: plasma cladribine after oral doses vs intravenous infusion
# Type: in vivo, human (patients with MS)
# Measurement setup: human; 3.0 mg IV infusion (1 hour), plasma, Mean ± SD, n = 26
Measured metric: half-life
Remember to quote the unit after the number.

Req: Name the recorded half-life of the compound listed here: Nc1nc(Cl)nc2c1ncn2[C@H]1C[C@H](O)[C@@H](CO)O1 [Cladribine, 2-chloro-2′-deoxyadenosine]
Resp: 390 min

Values compiled from patent US7888328B2.
